Attribution: patent US9232799B2

compounds and their reported % Inhibition of Aflatoxin at 50 μM
- Tested on: aflatoxines production
- protocol: microbe, parasite or virus in culture
- Format: cell-based, Aspergillus parasiticus
- experimental.parameters: 50 μM
Write down the numeric answer in % and omit the unit.

Item: Cn1nc(C(F)F)c(C(=O)NCCc2cc(Cl)cc(Cl)c2)c1F | % Inhibition of Aflatoxin at 50 μM: 100

Item: Cn1nc(C(F)F)c(C(=O)NCCc2cc(Cl)ccc2Cl)c1Cl | % Inhibition of Aflatoxin at 50 μM: 100

Item: CN(CCc1cc(Cl)ccc1Cl)C(=O)c1c(C(F)F)nn(C)c1Cl | % Inhibition of Aflatoxin at 50 μM: 100

Item: Cc1scc(CCNC(=O)c2c(C(F)F)nn(C)c2F)c1C | % Inhibition of Aflatoxin at 50 μM: 100

Item: Cn1nc(C(F)F)c(C(=O)NC(C)(C)C(=O)c2ccc3ccccc3c2)c1F | % Inhibition of Aflatoxin at 50 μM: 100

Item: CC(Cc1cc(Cl)cc(Cl)c1)NC(=O)c1c(C(F)F)nn(C)c1F (stereo not shown) | % Inhibition of Aflatoxin at 50 μM: 100

Item: CC(Cc1ccco1)NC(=O)c1c(C(F)F)nn(C)c1F (stereo not shown) | % Inhibition of Aflatoxin at 50 μM: 100

Item: Cn1nc(C(F)F)c(C(=O)N(C[Si](C)(C)c2ccccc2Cl)C2CC2)c1F | % Inhibition of Aflatoxin at 50 μM: 100

Item: Cn1nc(C(F)F)c(C(=O)NCCc2cccc(Cl)c2)c1Cl | % Inhibition of Aflatoxin at 50 μM: 100

Item: CC(Cc1ccccc1Cl)NC(=O)c1c(C(F)F)nn(C)c1F (stereo not shown) | % Inhibition of Aflatoxin at 50 μM: 100

Item: CC(C)C(CNC(=O)c1c(C(F)F)nn(C)c1F)c1ccc(Cl)cc1 (stereo not shown) | % Inhibition of Aflatoxin at 50 μM: 100

Item: C#CCOc1cc(C(OC)C(C)NC(=O)c2c(C(F)F)nn(C)c2Cl)ccc1OC (stereo not shown) | % Inhibition of Aflatoxin at 50 μM: 98

Item: CC(CN(C(=O)c1c(C(F)F)nn(C)c1F)C1CC1)c1ccccc1 (stereo not shown) | % Inhibition of Aflatoxin at 50 μM: 100

---

- Tested on: Alternaria solani
- protocol: In vivo preventive test on Alternaria solani (tomato)
- experimental.parameters: 500 ppm of active ingredient, evaluated 7 days after inoculation
readout.name: Efficacy (%)
Write down the numeric answer in % and omit the unit.

Study these solved cases before continuing.
compound="CC(Cc1cccc(Cl)c1)NC(=O)c1c(C(F)F)nn(C)c1Cl (centres unmarked) [Example 48]" quantitative_readout=95
compound="CN(CCc1ccccc1Cl)C(=O)c1c(C(F)F)nn(C)c1F [Example 35]" quantitative_readout=100
compound="Cc1ccsc1CCNC(=O)c1c(C(F)F)nn(C)c1F [Example 164]" quantitative_readout=95
compound="COC(c1ccc(Cl)cc1Cl)C1(NC(=O)c2c(C(F)F)nn(C)c2Cl)CC1 (centres unmarked) [Example 78]" quantitative_readout=100

Then there is this compound:
Item: Cn1nc(C(F)F)c(C(=O)NC2CCCCC2c2ccccc2)c1F (centres unmarked) [Example 213] | Efficacy: 89

---

molecules and their reported logP
- protocol: logP by HPLC on reversed-phase column (C 18), EEC Directive 79/831 Annex V.A8
- Type: physicochemical
- Procedure: In table 1, the logP values were determined in accordance with EEC Directive 79/831 Annex V.A8 by HPLC (High Performance Liquid Chromatography) on a reversed-phase column (C 18), using the method described below: Temperature: 40° C.; […]
Reply with the value as a number alone.

Study these solved cases before continuing.
molecule="CC(Cc1c(F)cccc1F)N(C(=O)c1c(C(F)F)nn(C)c1F)C1CC1 (centres unmarked)" quantitative_readout=3.42
molecule="CC(Cc1ccc(Cl)cc1Cl)NC(=S)c1c(C(F)F)nn(C)c1Cl (centres unmarked)" quantitative_readout=4.29
molecule=Cc1c(CCNC(=O)c2c(C(F)F)nn(C)c2Cl)sc2ccccc12 quantitative_readout=3.46
molecule=COCCN(CCc1ccncc1)C(=O)c1c(C(F)F)nn(C)c1Cl quantitative_readout=1.69

Then there is this molecule:
Item: CC(CNC(=O)c1c(C(F)F)nn(C)c1F)c1cccc(C(F)(F)F)c1 (centres unmarked) | logP: 3.23

---

compounds and their reported Efficacy
- Tested on: Alternaria solani
- protocol: In vivo preventive test on Alternaria solani (tomato)
- experimental.parameters: 500 ppm of active ingredient, evaluated 7 days after inoculation
Write down the numeric answer in % and omit the unit.

Study these solved cases before continuing.
compound="CC(Cc1ccc(Oc2ccccc2)cc1)NC(=O)c1c(C(F)F)nn(C)c1F (stereo not drawn) [Example 151]" quantitative_readout=95
compound="Cn1nc(C(F)F)c(C(=O)NC[Si](C)(C)c2cccc(Cl)c2)c1Cl [Example 236]" quantitative_readout=100
compound="CCOC(c1ccc(Cl)cc1Cl)C(C)NC(=O)c1c(C(F)F)nn(C)c1F (mixture of isomers) [Example 83]" quantitative_readout=100
compound="CC(CNC(=O)c1c(C(F)F)nn(C)c1Cl)c1c(F)cccc1F (stereo not drawn) [Example 29]" quantitative_readout=100
compound="CC(CNC(=O)c1c(C(F)F)nn(C)c1F)c1ccccc1Cl (stereo not drawn) [Example 39]" quantitative_readout=100

Item: Cc1ccsc1CCNC(=O)c1c(C(F)F)nn(C)c1Cl [Example 163] | Efficacy: 90

Item: CCC(CNC(=O)c1c(C(F)F)nn(C)c1Cl)c1ncc(C(F)(F)F)cc1Cl (stereo not drawn) [Example 193] | Efficacy: 100

Item: CC(CN(C(=O)c1c(C(F)F)nn(C)c1F)C1CC1)c1ccccc1 (stereo not drawn) [Example 13] | Efficacy: 95

Item: CC(CNC(=O)c1c(C(F)F)nn(C)c1F)c1cccc(C(F)(F)F)c1 (stereo not drawn) [Example 126] | Efficacy: 90

---

- Tested on: Alternaria solani
- protocol: In vivo preventive test on Alternaria solani (tomato)
- experimental.parameters: 500 ppm of active ingredient, evaluated 7 days after inoculation
readout.name: Efficacy (%)
Write down the numeric answer in % and omit the unit.

Study these solved cases before continuing.
compound="Cn1nc(C(F)F)c(C(=O)NCCc2c(Cl)cccc2Cl)c1Cl [Example 118]" quantitative_readout=90
compound="CC(Cc1ccccc1F)N(C(=S)c1c(C(F)F)nn(C)c1F)C1CC1 (stereo not drawn) [Example 21]" quantitative_readout=95
compound="Cn1nc(C(F)F)c(C(=O)NCCc2ccc(Cl)cc2Cl)c1F [Example 65]" quantitative_readout=90

Item: Cn1nc(C(F)F)c(C(=O)NCCc2ccc(Oc3ccccc3)cc2)c1F [Example 152] | Efficacy: 95

Item: CC(CNC(=O)c1c(C(F)F)nn(C)c1Cl)c1cccc(C(F)(F)F)c1 (stereo not drawn) [Example 125] | Efficacy: 95

---

compounds and their reported Efficacy
- System: Alternaria solani
- protocol: In vivo preventive test on Alternaria solani (tomato)
- experimental.parameters: 500 ppm of active ingredient, evaluated 7 days after inoculation
Write down the numeric answer in % and omit the unit.

compound="CC(CN(C(=S)c1c(C(F)F)nn(C)c1F)C1CC1)c1ccccc1 (stereo not shown)" target_or_system="Alternaria solani" unit_annotation=% quantitative_readout=90

The measured Efficacy that CC(Cc1ccc(Cl)cc1Cl)NC(=S)c1c(C(F)F)nn(C)c1Cl (stereo not shown) showed for Alternaria solani is 94

The measured Efficacy that Cn1nc(C(F)F)c(C(=O)NC[Si](C)(C)c2cccc(Cl)c2)c1F showed for Alternaria solani is 100

The measured Efficacy that Cn1nc(C(F)F)c(C(=O)NCC(c2cccs2)C(F)(F)F)c1Cl (stereo not shown) showed for Alternaria solani is 100

---

- System: Fusarium graminearum
- protocol: microbe, parasite or virus in culture
- Assay type: cell-based
- experimental.parameters: 50 μM
readout.name: % Inhibition of fungal growth at 50 μM (%)
Write down the numeric answer in % and omit the unit.

Study these solved cases before continuing.
molecule=Cn1nc(C(F)F)c(C(=O)NC[Si](C)(C)c2cccc(Cl)c2)c1Cl unit_annotation=% quantitative_readout=84
molecule=CN(C[Si](C)(C)c1ccccc1)C(=O)c1c(C(F)F)nn(C)c1F unit_annotation=% quantitative_readout=100
molecule=Cn1nc(C(F)F)c(C(=O)NCCc2ccc(Oc3ccccc3)cc2)c1F unit_annotation=% quantitative_readout=82
molecule="CC(Cc1c(F)cccc1Cl)N(C(=O)c1c(C(F)F)nn(C)c1Cl)C1CC1 (stereo not drawn)" unit_annotation=% quantitative_readout=79

The measured % Inhibition of fungal growth at 50 μM that Cn1nc(C(F)F)c(C(=O)NC2CC2c2cccc(F)c2)c1F (stereo not drawn) showed for Fusarium graminearum is 81

The measured % Inhibition of fungal growth at 50 μM that Cn1nc(C(F)F)c(C(=O)NCC(c2cccs2)C(F)(F)F)c1F (stereo not drawn) showed for Fusarium graminearum is 85

The measured % Inhibition of fungal growth at 50 μM that CC(CN(C)C(=O)c1c(C(F)F)nn(C)c1Cl)c1ccncc1 (stereo not drawn) showed for Fusarium graminearum is 37

The measured % Inhibition of fungal growth at 50 μM that COC(CNC(=O)c1c(C(F)F)nn(C)c1F)c1cc(Cl)cc(Cl)c1 (stereo not drawn) showed for Fusarium graminearum is 74

The measured % Inhibition of fungal growth at 50 μM that Cn1nc(C(F)F)c(C(=O)NCC(C)(C)c2cc(Cl)ccc2Cl)c1F showed for Fusarium graminearum is 85
